Exercise: for every item that follows, state its recorded pEC50.
# System: HBV DNA in HepG2.2.15 cells
# Protocol summary: HBV in vitro assay quantitive qPCR test
# Type: cell-based
# Test parameters: Hepatitis B virus, HepG2.2.15, read-out: BIOACTIVITY (inhibitory actions on HBV DNA, EC50)
pEC50: −log10 of the molar value.

Quick check: pEC50 of CCOP(=O)(N[C@H]1CC2=C(C(=O)OC)[C@H](c3ccc(F)cc3Cl)N=C(c3nccs3)N2C1)OCC [Example 174] ? 6.30 to 7.00

Dear colleague, I am looking for the recorded pEC50 of the following compound: COC(=O)C1=C2C[C@H](NS(C)(=O)=O)CN2C(c2nccs2)=N[C@H]1c1sccc1Cl [Example 177] > 7.00

Consider the compound shown here: COC(=O)C1=C2C[C@H](NP(=O)(OC)OC)CN2C(c2nccs2)=N[C@H]1c1ccc(F)cc1Cl [Example 190] What is its recorded pEC50? 6.30 to 7.00
